meta.source: PubChem BioAssay (NCI)

# System: OVCAR-4 ovarian
# Test: NCI tumour cell line growth inhibition, 48 h
Parameter Measured: TGI (µM)
// return numeric value only (unit: µM, not printed)

Form: Entry = COC(=O)c1cc2c(cc1Cl)SC(N(N(C)C)S(=O)(=O)c1ccc(Cl)cc1)=NS2(=O)=O | System = OVCAR-4 ovarian | TGI = ____
54.8

Lab request: please report TGI under test system OVCAR-4 ovarian for COC(=O)[C@]12CC[C@@H](C)[C@H](C)[C@@H]1C1=CC[C@@H]3[C@@]4(C)C=C(O)C(=O)C(C)=C4CC[C@@]3(C)[C@]1(C)CC2
26.3

---

Assignment: determine reported TGI for the given compounds.
# Test system: EKVX NSCLC
# Test: NCI tumour cell line growth inhibition, 48 h

Which measured TGI value corresponds to COC(=O)C(=O)C(C#N)c1ccc(Cl)c(Cl)c1 (stereo unspecified) ?
> 100 µM

Quick one: TGI of Cc1ccc(Nc2ccc(Nc3ccc(C)cc3S(=O)(=O)O)c3c2C(=O)c2ccccc2C3=O)c(S(=O)(=O)O)c1 ?
> 100 µM

Which TGI is reported for this compound? COc1cc(-c2coc3c(OC)c(OC4OC(COC5OC(C)C(O)C(O)C5O)C(O)C(O)C4O)c(OC)c(O)c3c2=O)cc(C)c1O (stereo unspecified)
38 µM

Sample O=C1NC(=S)NC(=O)C1=Cc1ccc2ccccc2n1 — what was its TGI?
> 100 µM

# get_value(readout='TGI', item= O=C(/C=C/c1ccc(Cl)cc1)c1ccncc1 )
> 100 µM

Which TGI reading was recorded for the compound O=c1c2cccnc2ncn1CCCN1CCOCC1 ?
> 100 µM

What value of measured TGI is listed for O=C(Nc1ccccc1F)c1ccc(NC2=C(Cl)C(=O)N(Cc3ccccc3)C2=O)cc1 ?
30.2 µM

Record request: TGI value, item O=C(NC(CO)CO)c1ccc2cc(C(=O)N3CC(CCl)c4ccc([N+](=O)[O-])cc43)[nH]c2c1 (stereo unspecified)
> 100 µM

Requested read-out: TGI. Entry: Cc1ccsc1/C=N/Nc1ccccn1
96.5 µM

Given the entry CC12CCC(C1)C(C)(C)C2OC(=O)c1ccccc1C(=O)O (stereo unspecified) , report its measured TGI.
> 100 µM

Using the record for Clc1ccc(-c2cn(-c3ccccc3)c(-c3ccccc3)n2)c(Cl)c1 , report its TGI.
> 50 µM

Give the measured TGI of CC(CN(C)C)C(=O)/C=C/c1ccc(Cl)c(Cl)c1 (stereo unspecified) .
3.11 µM

Entry under review: CCOC(=O)C1=CN(C(=O)c2ccccc2)CCC1Cc1ccccc1 (stereo unspecified) . Reported TGI?
> 100 µM

Item O=C1OC(C(O)C(O)C(O)CO)C(O)C1O (stereo unspecified) has what recorded TGI?
> 100 µM

Record request: TGI value, item OC1(c2ccc(Cl)cc2)c2ccccc2C2=NCc3ccccc3CN21 (stereo unspecified)
20.6 µM

What does the record list as TGI for O=[N+]([O-])c1ccc2c(c1)S(=O)c1ccccc1-2 (stereo unspecified) ?
> 100 µM
